src = patent US10626077B2

test system: L929 cells induced by TGF-β1; test: Inhibition of L929 cell proliferation induced by TGF-β1 (MTT); type: cell-based; details: Mus musculus, L929, 72 h, 2 μg/L TGF-β1, 72 h, MTT method
MEASUREMENT_LABEL: pIC50
Numbers only, as −log10 of the molar value.

Q. Value wanted: pIC50 (L929 cells induced by TGF-β1) of entry O=C(/C=C/c1ccc(O)c(O)c1/C(=C\c1ccc(O)c(O)c1)C(=O)O)O[C@@H](Cc1ccc(O)c(O)c1)C(=O)O [(S)-salvianolic acid T]
A. 4.58
